biological target: full length human TREX1 (Homo sapiens, UniProt Q9NSU2); construct: N-terminally His-Tev tagged full length human TREX1; His-Tev (His tag with TEV protease site) (N); experiment: TREX1 Biochemical Assay (fluorescence assay, degradation of dsDNA substrate); settings: 150 pM TREX1, 60 nM dsDNA substrate, 25 minutes at room temperature; read-out: hTREX1 EC50
Sequence (Q9NSU2 whole entry): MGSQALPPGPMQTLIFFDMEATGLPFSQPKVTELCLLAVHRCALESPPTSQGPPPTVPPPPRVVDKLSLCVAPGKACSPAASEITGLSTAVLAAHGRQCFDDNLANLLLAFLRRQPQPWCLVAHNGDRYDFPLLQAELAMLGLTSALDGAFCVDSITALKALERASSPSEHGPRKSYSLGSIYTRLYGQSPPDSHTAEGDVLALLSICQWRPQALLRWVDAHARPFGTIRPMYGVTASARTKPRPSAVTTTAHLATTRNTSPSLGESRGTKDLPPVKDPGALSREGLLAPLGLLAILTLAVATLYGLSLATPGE
Listed here are compounds together with their documented EC50.

# compound, EC50
data = [
    ("CC[C@H](c1cccc(Cl)c1Cl)N(Cc1ccc(C(=O)O)nc1)C(=O)c1cc(F)cc(F)c1 [Compound 254]", "< 100 nM"),
    ("NC(=O)Cc1ccc(CN(Cc2ccc(Cl)cc2Cl)C(=O)c2cc(F)cc(F)c2)cn1 [Compound 217]", "100 to 1000 nM"),
    ("O=C(c1cccc(F)c1)N(Cc1cccnc1)C1Cc2ccccc2C1 [Compound 134]", "> 10000 nM"),
    ("O=C(c1ccc(O)c(Br)c1)N(Cc1cccnc1)Cc1ccc(Cl)cc1Cl [Compound 15]", "> 10000 nM"),
    ("O=C(O)c1ccc(CN(Cc2cccc(Cl)c2Cl)C(=O)c2cc(F)cc(F)c2)cn1 [Compound 148]", "< 100 nM"),
    ("O=C(c1ccc(O)c(F)c1)N(Cc1cccnc1)Cc1ccc(Cl)cc1Cl [Compound 21]", "> 10000 nM"),
    ("COc1cc(C(=O)N(Cc2cccnc2)Cc2ccc(Cl)cc2Cl)cc(Br)c1OC [Compound 32]", "> 10000 nM"),
    ("O=C(c1ccc(O)c(Cl)c1)N(Cc1cccnc1)Cc1ccc(Cl)cc1Cl [Compound 3]", "> 10000 nM"),
    ("O=C(O)c1ccc(CN(Cc2cccc(Cl)c2C(F)(F)F)C(=O)c2cc(F)cc(F)c2)cn1 [Compound 198]", "100 to 1000 nM"),
    ("Cn1ncc2ccc(CN(Cc3cccnc3)C(=O)c3cccc(F)c3)cc21 [Compound 128]", "1000 to 10000 nM"),
    ("O=C(O)c1ccc(CN(Cc2c(Cl)cccc2Cl)C(=O)c2cc(F)cc(F)c2)cn1 [Compound 186]", "< 100 nM"),
    ("O=C(c1cccc(F)c1)N(Cc1cccnc1)Cc1cccc(F)c1Cl [Compound 137]", "100 to 1000 nM"),
    ("Cc1nocc1C(=O)N(Cc1cccnc1)Cc1ccc(Cl)cc1Cl [Compound 140]", "> 10000 nM"),
    ("Cc1cc(-c2ccc(CN(Cc3ccccc3Cl)C(=O)c3cc(F)cc(F)c3)cn2)[nH]n1 [Compound 219]", "1000 to 10000 nM"),
    ("CC[C@@H](c1ccc(Cl)cc1Cl)N(Cc1cccnc1)C(=O)c1cccc(F)c1 (single isomer, unassigned) [Compound 158]", "1000 to 10000 nM"),
    ("O=C(c1cccc(F)c1)N(Cc1cccnc1)Cc1ccccc1F [Compound 129]", "> 10000 nM"),
    ("O=C(c1cccc(F)c1)N(Cc1cccnc1)Cc1c(F)cccc1Cl [Compound 130]", "1000 to 10000 nM"),
    ("O=C(c1ccc(Br)cc1Cl)N(Cc1cccnc1)Cc1ccc(Cl)cc1Cl [Compound 18]", "> 10000 nM"),
    ("O=C(c1cc(F)cc(F)c1)N(Cc1ccc(CCO)nc1)Cc1ccc(Cl)cc1Cl [Compound 218]", "100 to 1000 nM"),
    ("CCC(=O)N(Cc1cccnc1)Cc1ccc(Cl)cc1Cl [Compound 88]", "> 10000 nM"),
    ("Cc1ccc(CN(Cc2ccc(Cl)cc2Cl)C(=O)c2cccc(F)c2)cn1 [Compound 110]", "> 10000 nM"),
    ("CC[C@@H](c1cccc(OC2COC2)c1Cl)N(Cc1ccc(C(=O)O)nc1)C(=O)c1cc(F)cc(F)c1 [Compound 232]", "< 100 nM"),
    ("O=C(c1cc(F)cc(F)c1)N(Cc1cccnc1CO)Cc1cccc(Cl)c1Cl [Compound 180]", "100 to 1000 nM"),
    ("O=C(CCCCc1ccccc1)N(Cc1cccnc1)Cc1ccc(Cl)cc1Cl [Compound 93]", "> 10000 nM"),
    ("O=C(c1cc(F)cc(F)c1)N(Cc1ccc(-c2noc(=O)[nH]2)nc1)Cc1cccc(Cl)c1Cl [Compound 262]", "100 to 1000 nM"),
    ("O=C(c1ccccc1F)N(Cc1cccnc1)Cc1cc(Cl)cc(Cl)c1 [Compound 37]", "> 10000 nM"),
    ("CN(C)c1cc(C(=O)O)ncc1CN(Cc1cccc(Cl)c1Cl)C(=O)c1cc(F)cc(F)c1 [Compound 209]", "< 100 nM"),
    ("O=C(c1ccc(Oc2ccc(Cl)cc2)cc1)N(Cc1cccnc1)Cc1ccc(Cl)cc1Cl [Compound 25]", "1000 to 10000 nM"),
    ("O=C(c1cc(F)cc(F)c1)N(Cc1ccc(-c2ccn[nH]2)nc1)Cc1ccccc1Cl [Compound 170]", "< 100 nM"),
    ("CC[C@H](c1ccc2c(c1Cl)OCO2)N(Cc1ccc(C(=O)O)nc1)C(=O)c1cc(F)cc(F)c1 [Compound 233]", "< 100 nM"),
    ("CC(C)(C)c1ccc(C(=O)N(Cc2cccnc2)Cc2cc(Cl)cc(Cl)c2)cc1 [Compound 61]", "> 10000 nM"),
    ("Nc1ccc(CN(Cc2ccc(Cl)cc2Cl)C(=O)c2cccc(F)c2)cn1 [Compound 146]", "1000 to 10000 nM"),
    ("O=C(c1cccc(Br)c1)N(Cc1cccnc1)Cc1cc(Cl)cc(Cl)c1 [Compound 30]", "> 10000 nM"),
    ("Cc1ccccc1CN(Cc1ccc(C(=O)O)nc1)C(=O)c1cc(F)cc(F)c1 [Compound 193]", "100 to 1000 nM"),
]
